Test system: TANOUE;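 note: ALL cell lines in 384-well plates, five doses spanning 10,000-fold, each plate scaled between vehicle and 100 µmol/L benzalkonium chloride controls, sDSS an adapted area-under-curve metric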
Assay: selective drug sensitivity score (sDSS, relative to normal bone marrow) (sDSS (score)); higher = more potent and effective on the cell line relative to normal bone marrow cells
Conditions: 72 h
Decision: selective drug sensitivity score >= -3 yields class 1, all other cases yield class 0.

molecule | category
CO[C@H]1C[C@@H]2CC[C@@H](C)[C@@](O)(O2)C(=O)C(=O)N2CCCC[C@H]2C(=O)O[C@H]([C@H](C)C[C@@H]2CC[C@@H](OCCO)[C@H](OC)C2)CC(=O)[C@H](C)/C=C(\C)[C@@H](O)[C@@H](OC)C(=O)[C@H](C)C[C@H](C)/C=C/C=C/C=C/1C [Everolimus] (top concentration 100 nM) | class 0
COc1cc2c(Nc3ccc(Cl)c(Cl)c3F)ncnc2cc1OC[C@@H]1C[C@@H]2CN(C)C[C@@H]2C1 [Tesevatinib] (top concentration 1000 nM) | class 1
CN1CCN(C2CCN(C(=O)Nc3cc(Oc4ccc(NC(=O)C5(C(=O)Nc6ccc(F)cc6)CC5)c(F)c4)ccn3)CC2)CC1 [Golvatinib] (top concentration 2500 nM) | class 1
C[C@@H]1CN(C(=O)c2ccc(NC(=O)c3cc(O[C@H](C)c4c(Cl)ccc(F)c4Cl)c(N)nn3)cc2)C[C@H](C)N1 [Ensartinib] (top concentration 1000 nM) | class 1
CN1C(=O)N[C@H](Cc2c[nH]c3c(Cl)cccc23)C1=O [Necrostatin_2] (top concentration 10000 nM) | class 1
O=C(/C=C\n1cnc(-c2cc(C(F)(F)F)cc(C(F)(F)F)c2)n1)NNc1cnccn1 [Selinexor] (top concentration 10000 nM) | class 0
Cc1[nH]nc(C(F)(F)F)c1Cc1sc2c(c1C(=O)N1C[C@](C)(O)CO1)c(=O)n(C)c(=O)n2C(C)C [AZD3965] (top concentration 1000 nM) | class 1
C[C@@H]1COC(Nc2ccc3ncnc(Nc4ccc(OCc5nccs5)c(Cl)c4)c3c2)=N1 [Varlitinib] (top concentration 10000 nM) | class 1
CC(=O)O[C@@]12CO[C@@H]1C[C@H](O)[C@@]1(C)C(=O)[C@H](O)C3=C(C)[C@@H](OC(=O)[C@H](O)[C@@H](NC(=O)OC(C)(C)C)c4ccccc4)C[C@@](O)([C@@H](OC(=O)c4ccccc4)[C@H]21)C3(C)C [Docetaxel] (top concentration 1000 nM) | class 0
CCC1(c2ccc(N)cc2)CCC(=O)NC1=O (stereo unspecified) [Aminoglutethimide] (top concentration 10000 nM) | class 1
Cc1nc(=O)c2cc(CN(C)c3ccc(C(=O)N[C@@H](CCC(=O)O)C(=O)O)s3)ccc2[nH]1 [Raltitrexed] (top concentration 1000 nM) | class 1
